Sourced from patent US20230114728A1

- System: E. coli 901C
- TEST_NAME: Broth microdilution MIC in CAMHB
- Format: cell-based
- MEASUREMENT_SETUP: Escherichia coli; MHB; hyper-permeable E. coli 901C; read-out: Minimum Inhibitory Concentration, E. coli 901C
OBSERVED_PROPERTY: MIC

INSERT INTO assay_data (molecule, endpoint_result) VALUES
  ('CCN1CCN(C(=O)N[C@@H](C(=O)N[C@H]2Cc3cccc(C(=O)O)c3OB2O)c2ccc(C(=O)O)c(Cl)c2F)C(=O)C1=O (single isomer, unassigned)', '> 128 µg/mL'),
  ('NC1(CN2CCN(C(=O)N[C@@H](C(=O)N[C@H]3Cc4cccc(C(=O)O)c4OB3O)c3ccc(O)c(F)c3F)C(=O)C2=O)CC1 (single isomer, unassigned)', '32 to 64 µg/mL'),
  ('O=C(O)c1cccc2c1OB(O)[C@@H](NC(=O)C(NC(=O)N1CCN(CCF)C(=O)C1=O)c1ccc(O)c(F)c1F)C2 (stereo partly drawn)', '32 to 64 µg/mL');
